- System: HEK293T-Rex ERSE-FLuc
- Assay: maximal ERSE-FLuc activation from dose-response fit, relative to thapsigargin (% of thapsigargin); higher = stronger activation
- Condition label: 18 h
Mark f for maximal ERSE-FLuc activation values under 30, and t for everything at or above.

Check out these entries, answers already filled in.
> print(dat)
                                   compound  class.name
1  COc1ccc2oc(=Nc3cc(F)ccc3F)c(C(N)=O)cc2c1           f
2  Cc1ccc2nc(/C(C#N)=C/c3ccc(O)c(O)c3)[nH]c2c1           f
3           C=CCNC(=O)c1cc(-c2ccc(F)cc2)on1           t
4  CS(=O)(=O)c1ncc(Cl)c(C(=O)C(C#N)c2nc3ccccc3s2)n1 (centres undefined)           t
5    Cc1nc(-c2ccc(C(=O)Nc3ccc(O)cc3)cc2)cs1           f

Query: hey, is maximal ERSE-FLuc activation for this one >= 30? COc1cccc(C(=O)/C=C/Nc2cc(C)ccc2O)c1
Result: t

Query: hey, is maximal ERSE-FLuc activation for this one >= 30? COc1cccc(-c2nc3ccc(N)cc3[nH]2)c1
Result: f

Query: hey, is maximal ERSE-FLuc activation for this one >= 30? Nc1cn(-c2ccccc2)nc1-c1cccs1
Result: t

Query: hey, is maximal ERSE-FLuc activation for this one >= 30? Oc1cccc(/C=N/Nc2ccc(Cl)nn2)c1O
Result: t

Query: hey, is maximal ERSE-FLuc activation for this one >= 30? O=C(Nc1nc2c(s1)CCCC2)c1cccc2ccccc12
Result: t

Query: hey, is maximal ERSE-FLuc activation for this one >= 30? COc1ccc(NC(=O)/C(Cl)=C\c2ccccc2)cc1
Result: f

Query: hey, is maximal ERSE-FLuc activation for this one >= 30? COc1cccc(/C=N/NC(=O)c2ccc(NC(=O)c3ccc(C)cc3)cc2)c1O
Result: f

Query: hey, is maximal ERSE-FLuc activation for this one >= 30? O=c1cc(-c2ccc(O)c(O)c2)oc2ccccc12
Result: t

Query: hey, is maximal ERSE-FLuc activation for this one >= 30? COc1cccc(C(=O)Nc2nc3ccc(C)cc3s2)c1
Result: t

Query: hey, is maximal ERSE-FLuc activation for this one >= 30? CN(C)c1ccc(/C=C/C(=O)NC(=O)c2ccccc2OC(=O)c2ccccc2)cc1
Result: f

Query: hey, is maximal ERSE-FLuc activation for this one >= 30? Cc1ccc(C(=O)Nc2sc3c(c2C#N)CCC3)cc1
Result: f
